experiment: Pharmacokinetics in female BALB/c nude mice bearing A375 xenografts, 1 day dosing (PK and PD study): plasma, tumor and brain concentrations, AUC; assay type: in vivo; conditions: mouse, plasma, po, 5 mg/kg, 5 mg/kg p.o. BID × 1 day; post 2nd dose; 36 h; read-out: Mean Concentration in Plasma ± SEM
experimental_endpoint: concentration at 36 h (ng/mL)

molecule	unit_info	observed_measurement
CCN(C)S(=O)(=O)Nc1ccc(F)c(Oc2ccc3ncn(C4CC5(CCN(C6CC7(C6)CN(c6cc8c(cc6F)c(N6CCC(=O)NC6=O)nn8C)C7)CC5)C4)c(=O)c3c2)c1C#N (stereo not shown)	ng/mL	2.06
